ASSAY_REMARKS: qHTS for Inhibitors of human tyrosyl-DNA phosphodiesterase 1 (TDP1): qHTS in cells in absence of CPT; also: nearly all actives have a fitted effect of over 55% in size
CONDITION_DETAILS: DT40 Tdp1-/- hTDP1 cells, no CPT, ATP luminescence, 48 h
In all, about 420,000 compounds went through this assay and about 64,000 (15%) were called active. Not shown: some 27% with an inconclusive outcome. Calls follow the shape of the dose curve; as a rule, active = well fitted inhibition curve with a large enough effect; inconclusive = small, poorly fitted or top-dose-only effect; inactive = flat fitted curve, though single readings scatter. These entries were drawn from the full list.
Your answer must be one of the following: active, inactive

compound=CCOc1ccc(NC(=O)CCNC(=O)c2ccc(Br)cc2)cc1 category=inactive
compound=CN(CC(=O)Nc1ccccc1Cl)C(=O)c1ccccc1SCC(=O)N1CCCC1 category=inactive
compound=O=C(OCc1nnc(-c2ccccc2)o1)c1cc(=O)[nH]c2ccccc12 category=inactive
compound=CCCN(CCC)CCNC(=O)Cn1cnc2sc(C)c(S(=O)(=O)N3CCC(C)CC3)c2c1=O category=inactive
compound=COc1ccc(CN(C)C(=O)Cc2c[nH]c3ccccc23)c(OC)c1OC category=inactive
compound=COc1ccc(NC(=O)c2cc(-c3cc(OC)c(OC)c(OC)c3)nc3ccccc23)c(OC)c1 category=active

// outcome(item) with item = "Cc1cccc(C(=O)NCC(=O)OCC(=O)N(C)CC(=O)Nc2ccccc2Cl)c1"
inactive

// outcome(item) with item = CN=C1SC(C(=O)O)CC(=O)N1C (configuration not stated)
inactive

// outcome(item) with item = Cc1cc(OC(C)C(=O)NC2CC(C)(C)NC(C)(C)C2)c2c(C)cc(=O)oc2c1 (configuration not stated)
inactive

// outcome(item) with item = "CN(Cc1ccc(F)cc1)C(=O)COc1ccc2ccccc2c1"
inactive

---

ASSAY_REMARKS: qHTS for Inhibitors of human tyrosyl-DNA phosphodiesterase 1 (TDP1): qHTS in cells in absence of CPT; also: nearly all actives have a fitted effect of over 55% in size
CONDITION_DETAILS: DT40 Tdp1-/- hTDP1 cells, no CPT, ATP luminescence, 48 h
Protocol: Human tyrosyl-DNA phosphodiesterase 1 (TDP1) is a novel repair gene, and we propose to use it as a new target for anticancer drug development. […] For the primary screen, Tdp1-/-;hTDP1 cells will be exposed to small molecules in the presence or absence of CPT, and their growth kinetics will be evaluated after 48 hours by measuring ATP activity. […] The hit compounds will then be evaluated in the presence or absence of CPT using Tdp1-/- cells. […]
The campaign covered roughly 420,000 compounds. About 64,000 (15%) were called active. Roughly 27% stayed inconclusive and do not appear here. Calls come from the whole dose curve; as a rule, active = well fitted inhibition curve with a large enough effect; inconclusive = small, poorly fitted or top-dose-only effect; inactive = flat fitted curve, though single readings scatter. Only a sample is shown.
Your answer must be one of the following: t (active), f (inactive)

Please review the following examples before continuing.
molecule=C=CCn1c(SCC(=O)Nc2nc3ccccc3s2)nnc1-c1ccccc1O category=f
molecule="O=C(CCn1nnnc1CN1CCOCC1)N1CCC(c2ccccc2Cl)C1 (configuration not stated)" category=f

// outcome(item) with item = "O=c1[nH]c2ccccc2n1C1CCN(CCOc2ccccc2)CC1"
t

// outcome(item) with item = "C=CCn1c(COc2cccc3cccnc23)nnc1SCC(=O)OC"
f

---

ASSAY_REMARKS: qHTS for Inhibitors of human tyrosyl-DNA phosphodiesterase 1 (TDP1): qHTS in cells in absence of CPT; also: nearly all actives have a fitted effect of over 55% in size; also: potency is read from the fitted curve at half-maximal effect
CONDITION_DETAILS: DT40 Tdp1-/- hTDP1 cells, no CPT, ATP luminescence, 48 h
In all, about 420,000 compounds went through this assay and about 64,000 (15%) were called active. Not shown: some 27% with an inconclusive outcome. Only a sample is shown.
METRIC_NAME: Potency

Consider the following illustrative entries.
compound=CCOc1ncccc1C(=O)OCc1cn2cc(Cl)ccc2n1 metric_name=Potency measured=inactive
compound=O=C(O)C1CCN(c2ccc([N+](=O)[O-])cc2[N+](=O)[O-])CC1 metric_name=Potency measured=inactive
compound=COc1ccc(-c2nonc2NC(=O)c2oc3ccc(F)cc3c2C)cc1OC metric_name=Potency measured=inactive
compound=CCn1nnc(NC(=O)c2cc(Cl)c(OC)c(Cl)c2)n1 metric_name=Potency measured=inactive
compound=COc1ccc(C(=O)Nc2nonc2-c2ccc(OC)c(OC)c2)cc1Cl metric_name=Potency measured="23.1 µM (active)"

Param item = "O=[N+]([O-])c1ccc(N2CCOCC2)cc1" ; retrieve measured Potency.
inactive

Param item = "O=[N+]([O-])c1ccc(N2CCN(c3ccc(O)cc3)CC2)c(Cl)c1" ; retrieve measured Potency.
13 µM (active)

Param item = "O=C(O)/C=C/c1ccc(S(=O)(=O)N2CCCCCC2)cc1" ; retrieve measured Potency.
inactive

Param item = "COc1cc(C)c(C)cc1S(=O)(=O)N1CCCc2ccccc21" ; retrieve measured Potency.
16.4 µM (active)

Param item = OC(c1ccccc1)c1nccn1Cc1ccccc1 (stereo unspecified) ; retrieve measured Potency.
inactive

Param item = COc1ccc(NC(=S)NC2CCS(=O)(=O)C2)cc1 (stereo unspecified) ; retrieve measured Potency.
inactive
